The values you see were collected from patent US4146719A.

test: Biliary excretion in rats after a single oral administration of 50 mg/kg; settings: in vivo; rat, 50 mg/kg oral, 3-6 hrs., mean±S.E.; read-out: Biliary level
Endpoint label: concentration at 6 h (ng/mL)
// units = ng/mL; emit number, no label

What the record says about CCn1cc(C(=O)O)c(=O)c2ccc(C)nc21 [Nalidixic acid] : concentration at 6 h is 16600

---

experiment: Concentrations in urine of rats after a single oral administration; assay type: in vivo; conditions: rat, 6.25 mg/kg oral, 3-6 hours, mean ±S.E., read-out: Urinary level
Endpoint label: concentration at 6 h (ng/mL)
// units = ng/mL; emit number, no label

What the record says about CCn1cc(C(=O)O)c(=O)c2cc(F)c(N3CCNCC3)cc21 : concentration at 6 h is 8080
